This section presents compounds with their documented combination Emax values.
Tested on: NB10 (Neuroblastoma)
Test: combination Emax (second highest fraction inhibited in the dose matrix, 72 h); higher = more inhibition; extreme values may be limits of the assay
Respond with the number and no other words.

Sample answers from the record:
COMPOUND	MEASURED VALUE
C[C@@H](Nc1cc(F)cc(F)c1)c1cc(C(=O)N(C)C)cc2c(=O)cc(N3CCOCC3)oc12 [AZD8186] + C1CN(CCC1(C(=O)N[C@@H](CCO)C2=CC=C(C=C2)Cl)N)C3=NC=NC4=C3C=CN4 [AZD5363] (first compound max 10 µM, 7x7, partner max 10 µM)	0.228
CS(=O)(=O)CCNCc1ccc(-c2ccc3ncnc(Nc4ccc(OCc5cccc(F)c5)c(Cl)c4)c3c2)o1 [Lapatinib] + NC1(c2ccc(-c3nc4ccn5c(=O)[nH]nc5c4cc3-c3ccccc3)cc2)CCC1 [MK-2206] (first compound max 10 µM, 7x7, partner max 10 µM)	0.903
CC1(C)CCC(CN2CCN(c3ccc(C(=O)NS(=O)(=O)c4ccc(NCC5CCOCC5)c([N+](=O)[O-])c4)c(Oc4cnc5[nH]ccc5c4)c3)CC2)=C(c2ccc(Cl)cc2)C1 [Venetoclax] + COc1cc(Nc2ncc3c(n2)-c2ccc(Cl)cc2C(c2c(F)cccc2OC)=NC3)ccc1C(=O)O [Alisertib] (first compound max 1 µM, 7x7, partner max 10 µM)	0.995
Cc1c2c(nn1C)CSCc1cc(n(C)n1)CSc1cc(c3ccccc3c1)OCCCc1c(C(=O)O)n(C)c3c-2c(Cl)ccc13 [AZD5991] + CN(C)CCCOc1ccc(-c2ccc3ncc4c(c3c2)n(C2CCOCC2)c(=O)n4C)cn1 [AZD0156] (first compound max 1 µM, 7x7, partner max 1 µM)	0.273
NC1(C(=O)N[C@@H](CCO)c2ccc(Cl)cc2)CCN(c2ncnc3[nH]ccc23)CC1 [Capivasertib] + CCN(CCO)CCCOc1ccc2c(Nc3cc(CC(=O)Nc4cccc(F)c4)[nH]n3)ncnc2c1 [AZD2811] (first compound max 10 µM, 7x7, partner max 1 µM)	0.452

As a next step, examine the compound that follows.
# query: combination Emax of entry COc1nnc2ccc(N3CCC(c4ccc(OCCN5CCN(C)C(=O)[C@H]5C)cc4)CC3)nn12 [AZD5153] + C=CCn1c(=O)c2cnc(Nc3ccc(N4CCN(C)CC4)cc3)nc2n1-c1cccc(C(C)(C)O)n1 [AZD1775] (first compound max 1 µM, partner max 1 µM) 0.749

Cited source for all entries: the supplement of paper PMC11061612
